# MEASUREMENT TARGET: UniProt:Q96RI1
# Sequence (Q96RI1 whole entry): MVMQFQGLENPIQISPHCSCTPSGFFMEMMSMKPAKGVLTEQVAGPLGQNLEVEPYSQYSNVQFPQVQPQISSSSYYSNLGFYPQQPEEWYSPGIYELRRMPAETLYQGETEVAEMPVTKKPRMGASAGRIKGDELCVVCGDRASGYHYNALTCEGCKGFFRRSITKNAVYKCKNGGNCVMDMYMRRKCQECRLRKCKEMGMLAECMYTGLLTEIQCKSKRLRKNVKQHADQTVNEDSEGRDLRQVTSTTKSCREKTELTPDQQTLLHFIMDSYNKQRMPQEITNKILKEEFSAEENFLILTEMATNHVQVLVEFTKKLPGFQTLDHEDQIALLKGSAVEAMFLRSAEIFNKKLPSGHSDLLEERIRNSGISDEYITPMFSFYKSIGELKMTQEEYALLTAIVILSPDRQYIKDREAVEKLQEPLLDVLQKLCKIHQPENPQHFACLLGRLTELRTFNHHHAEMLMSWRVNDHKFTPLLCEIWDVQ
# Sequence (P19793 whole entry partner): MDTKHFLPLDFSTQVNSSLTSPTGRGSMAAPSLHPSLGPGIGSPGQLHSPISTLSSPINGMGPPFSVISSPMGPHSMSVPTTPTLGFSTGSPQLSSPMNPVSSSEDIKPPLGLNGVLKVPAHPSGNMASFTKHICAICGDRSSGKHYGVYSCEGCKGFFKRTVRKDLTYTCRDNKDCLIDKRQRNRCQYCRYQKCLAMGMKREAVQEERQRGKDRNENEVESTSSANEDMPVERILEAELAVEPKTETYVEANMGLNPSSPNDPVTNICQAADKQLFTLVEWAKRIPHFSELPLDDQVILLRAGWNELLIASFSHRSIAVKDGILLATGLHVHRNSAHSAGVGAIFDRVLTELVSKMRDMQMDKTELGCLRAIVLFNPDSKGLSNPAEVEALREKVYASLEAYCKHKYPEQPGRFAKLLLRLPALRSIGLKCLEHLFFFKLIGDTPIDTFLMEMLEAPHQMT
# PROTOCOL NOTES: In Vitro FXR Assay (TK): TK-ECRE-luc reporter in transfected CV-1 cells
# CONDITIONS: CV-1 cells transfected with hFXR, hRXR, pCMX-YFP, 18 hrs incubation, luminescence
Listing of entries alongside the reported EC50.

| STRUCTURE NOTATION | EC50 |
| --- | --- |
| COc1ccc(C23CCC(CN(c4cc(-c5coc(C(C)(C)C)n5)ccn4)C(=O)[C@H]4CC[C@H](OC(=O)NC5COC5)CC4)(CC2)CC3)cc1C | 10 to 1000 nM |
| COc1ccc(C23CCC(CN(c4ccnc(-c5cnn(C(C)(C)C)c5)c4)C(=O)[C@H]4CC[C@H](OC(=O)N5CC(O)C5)CC4)(CC2)CC3)cc1C | 10 to 1000 nM |
| COc1ccc(C23CCC(CN(c4cc(-c5cnn(C(C)(C)C)c5)ccn4)C(=O)[C@H]4CC[C@H](OC(=O)N5CC[C@@H](O)C5)CC4)(CC2)CC3)cc1C | ≤ 10 nM |
| COc1ccc(C23CCC(CN(c4cc(-c5cnc(C(C)(C)C)s5)ccn4)C(=O)[C@H]4CC[C@H](OC(=O)N5CC(O)C5)CC4)(CC2)CC3)cc1C | ≤ 10 nM |
| COc1ccc([C@H]2CC[C@H](CN(c3cc(-c4cnn(C(C)(C)C)c4)ccn3)C(=O)[C@H]3CC[C@H](OC(=O)N4CC(O)C4)CC3)CC2)cc1C | 10 to 1000 nM |

Just for reference, patent US11773094B2 is where these values come from.
